# target or test system: Bifunctional 3'-5' exonuclease/ATP-dependent helicase WRN (Homo sapiens)
# Sequence (Q14191 whole entry): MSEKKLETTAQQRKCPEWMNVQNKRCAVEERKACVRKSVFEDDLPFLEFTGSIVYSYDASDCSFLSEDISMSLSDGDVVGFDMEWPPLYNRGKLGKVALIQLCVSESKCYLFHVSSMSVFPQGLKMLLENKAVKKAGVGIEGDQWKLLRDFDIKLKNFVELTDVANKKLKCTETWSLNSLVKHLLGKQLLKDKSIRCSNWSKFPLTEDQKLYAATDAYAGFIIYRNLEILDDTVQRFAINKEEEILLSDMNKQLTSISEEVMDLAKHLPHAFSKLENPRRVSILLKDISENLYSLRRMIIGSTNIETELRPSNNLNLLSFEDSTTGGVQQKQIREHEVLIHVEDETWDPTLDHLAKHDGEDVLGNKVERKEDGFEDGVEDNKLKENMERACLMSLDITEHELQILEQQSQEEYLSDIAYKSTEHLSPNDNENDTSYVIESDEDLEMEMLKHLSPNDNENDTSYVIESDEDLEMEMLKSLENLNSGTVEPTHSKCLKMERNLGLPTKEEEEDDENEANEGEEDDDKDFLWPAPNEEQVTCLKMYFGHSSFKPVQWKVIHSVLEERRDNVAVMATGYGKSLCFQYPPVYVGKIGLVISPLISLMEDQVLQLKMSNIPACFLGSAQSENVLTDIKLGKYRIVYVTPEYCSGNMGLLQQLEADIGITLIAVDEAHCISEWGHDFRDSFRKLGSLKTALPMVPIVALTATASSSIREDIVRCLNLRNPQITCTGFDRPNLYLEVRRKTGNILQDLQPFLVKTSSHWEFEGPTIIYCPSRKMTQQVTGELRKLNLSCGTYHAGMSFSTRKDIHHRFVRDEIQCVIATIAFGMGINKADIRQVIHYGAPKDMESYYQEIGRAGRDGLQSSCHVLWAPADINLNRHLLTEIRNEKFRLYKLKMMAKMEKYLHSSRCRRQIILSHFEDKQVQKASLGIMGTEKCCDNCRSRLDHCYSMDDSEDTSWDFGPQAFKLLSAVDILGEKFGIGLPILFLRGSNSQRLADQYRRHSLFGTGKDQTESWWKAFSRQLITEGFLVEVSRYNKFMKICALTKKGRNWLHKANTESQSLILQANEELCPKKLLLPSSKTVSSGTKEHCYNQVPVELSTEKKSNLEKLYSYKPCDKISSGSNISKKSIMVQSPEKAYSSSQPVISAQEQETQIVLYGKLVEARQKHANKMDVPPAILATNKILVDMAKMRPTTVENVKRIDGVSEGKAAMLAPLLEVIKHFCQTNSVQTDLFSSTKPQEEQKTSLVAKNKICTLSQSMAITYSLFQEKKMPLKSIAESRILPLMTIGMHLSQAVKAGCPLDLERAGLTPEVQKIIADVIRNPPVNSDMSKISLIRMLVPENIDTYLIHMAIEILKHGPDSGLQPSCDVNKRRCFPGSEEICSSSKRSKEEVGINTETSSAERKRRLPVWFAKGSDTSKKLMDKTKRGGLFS
# protocol notes: ADP-Glo Kinase Assay
measurement name: IC50 (nM)

molecule="CCc1c(N2CCN(C(=O)c3ncnc(C)c3O)CC2)c(=O)n2nc(-c3cccc4c3OCC4)nc2n1CC(=O)Nc1ccc(C(F)(F)F)cc1Cl [WO2025049746, Example 158]" target_or_test_system="Bifunctional 3'-5' exonuclease/ATP-dependent helicase WRN (Homo sapiens)" endpoint_value=71
molecule="CCc1c(N2CCN(C(=O)c3nc4c(cc3O)CCOC4)CC2)c(=O)n2nc(-c3ccc4c(c3)COC4)nc2n1CC(=O)Nc1ccc(C(F)(F)F)cc1Cl [WO2025049746, Example 441]" target_or_test_system="Bifunctional 3'-5' exonuclease/ATP-dependent helicase WRN (Homo sapiens)" endpoint_value=68
molecule="CCc1c(N2CCN(C(=O)c3nc4c(cc3OCc3ccc(OC)cc3)COCC4)CC2)c(=O)n2nc(-c3ccc4c(c3)COC4(C)C)nc2n1CC(=O)Nc1ccc(C(F)(F)F)cc1Cl [WO2025049746, Example 464]" target_or_test_system="Bifunctional 3'-5' exonuclease/ATP-dependent helicase WRN (Homo sapiens)" endpoint_value=68

----------
# target or test system: Bifunctional 3'-5' exonuclease/ATP-dependent helicase WRN [480-1251] (UniProt Q14191)
# Construct: 480-1251
# Sequence (Q14191 480-1251): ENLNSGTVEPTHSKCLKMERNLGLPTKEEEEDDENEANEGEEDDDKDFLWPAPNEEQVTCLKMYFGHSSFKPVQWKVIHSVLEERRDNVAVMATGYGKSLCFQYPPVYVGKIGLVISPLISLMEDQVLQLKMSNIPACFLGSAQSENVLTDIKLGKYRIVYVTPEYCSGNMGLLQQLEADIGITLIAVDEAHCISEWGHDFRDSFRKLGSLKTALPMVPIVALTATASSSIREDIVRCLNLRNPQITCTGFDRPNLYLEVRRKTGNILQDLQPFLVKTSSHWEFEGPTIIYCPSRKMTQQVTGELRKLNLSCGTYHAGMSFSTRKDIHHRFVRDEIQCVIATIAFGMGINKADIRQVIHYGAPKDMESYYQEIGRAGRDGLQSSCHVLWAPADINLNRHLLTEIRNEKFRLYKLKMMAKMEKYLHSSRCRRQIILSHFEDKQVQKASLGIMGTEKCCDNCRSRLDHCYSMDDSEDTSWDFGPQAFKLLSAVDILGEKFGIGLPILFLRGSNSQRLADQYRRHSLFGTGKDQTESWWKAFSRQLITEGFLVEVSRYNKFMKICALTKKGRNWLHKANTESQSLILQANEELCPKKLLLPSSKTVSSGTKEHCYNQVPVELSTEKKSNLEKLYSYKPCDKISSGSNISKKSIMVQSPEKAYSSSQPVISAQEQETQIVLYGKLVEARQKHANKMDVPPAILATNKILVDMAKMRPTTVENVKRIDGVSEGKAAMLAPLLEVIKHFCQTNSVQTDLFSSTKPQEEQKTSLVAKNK
# protocol notes: Biochemical Activity Assays
# log10 IC50 per record follows
measurement name: log10 IC50 (log10 of the value in nM)

smiles_record=CCc1c(N2CCN(C(=O)c3ncnc(C)c3O)CC2)c(=O)n2nc(-c3ccc4nn(C)cc4c3)nc2n1CC(=O)Nc1ccc(C(F)(F)F)cc1Cl measurement_name="log10 IC50" endpoint_value=1.41
smiles_record=CCc1c(N2CCN(C(=O)c3ncnc(C)c3O)CC2)c(=O)n2nc(-c3ccc4ncncc4c3)nc2n1CC(=O)Nc1ccc(C(F)(F)F)cc1Cl measurement_name="log10 IC50" endpoint_value=1.36
smiles_record=CCc1c(N2CCN(C(=O)c3ncnc(C)c3O)CC2)c(=O)n2nc(-c3ccc4c(c3)CO[C@H]4C)nc2n1CC(=O)Nc1ccc(C(F)(F)F)cc1Cl measurement_name="log10 IC50" endpoint_value=1.49
smiles_record=CCc1c(N2CCN(C(=O)c3ncnc(C)c3O)CC2)c(=O)n2nc(-c3ccc4c(c3F)CCOC4)nc2n1CC(=O)Nc1ccc(C(F)(F)F)cc1Cl measurement_name="log10 IC50" endpoint_value=1.51
smiles_record=CCc1c(N2CCN(C(=O)C3=CCOCC3)CC2)c(=O)n2nc(-c3ccnc(O)n3)nc2n1CC(=O)Nc1ccc(C(F)(F)F)cc1Cl measurement_name="log10 IC50" endpoint_value=2.57
smiles_record=CCc1c(N2CCN(C(=O)c3cccn4ccnc34)CC2)c(=O)n2nc(C3=CCOCC3)nc2n1CC(=O)Nc1ccc(C(F)(F)F)cc1Cl measurement_name="log10 IC50" endpoint_value=1.90
smiles_record=CCc1c(N2CCN(C(=O)c3ncnc(C)c3O)CC2)c(=O)n2nc(-c3ccc4c(c3)COC43CCC3)nc2n1CC(=O)Nc1ccc(C(F)(F)F)cc1Cl measurement_name="log10 IC50" endpoint_value=1.66
smiles_record=CCc1c(N2CCN(C(=O)c3ncnc(C)c3O)CC2)c(=O)n2nc(-c3ccc4nn(CC)cc4c3)nc2n1CC(=O)Nc1ccc(C(F)(F)F)cc1Cl measurement_name="log10 IC50" endpoint_value=1.48
smiles_record=Cc1ncnc(C(=O)N2CCN(c3c4n(c5nc(-c6ccc7c(c6)COC7(C)C)nn5c3=O)[C@H](C(=O)Nc3ccc(C(F)(F)F)cc3Cl)C[C@@H]4C)[C@H]3CC[C@@H]32)c1O measurement_name="log10 IC50" endpoint_value=1.63

----------
# target or test system: Bifunctional 3'-5' exonuclease/ATP-dependent helicase WRN [480-1251] (UniProt Q14191)
# Construct: 480-1251
# protocol notes: Biochemical Activity Assays
# Description: The pure fractions were pooled and desalted/buffer exchanged into storage buffer using a HiTrap desalting column. […] First, WRN alone was pre-incubated with DMSO or compound of interest for 15 minutes. To initiate the reaction, ATP, dsDNA substrate, and ssDNA competitor (ssDNA_comp: […]) were added and incubated at room temperature for 20 minutes at which point DNA unwinding activity was monitored by measuring Cy3 fluorescence. […]
measurement name: IC50 (nM)

smiles_record=CCc1c(N2CCN(C(=O)c3ncnc(C)c3O)CC2)c(=O)n2nc(N(C)C)nc2n1CC(=O)Nc1c(Cl)cc(C(F)(F)F)c2c1CC2 endpoint_value=32
smiles_record=CCc1c(N2CCN(C(=O)c3ncnc(C)c3O)CC2)c(=O)n2nc(N3CCC3)nc2n1CC(=O)Nc1ccc(C(F)(F)F)cc1Cl endpoint_value=60.3
smiles_record=CCc1c(N2CCN(C(=O)c3ncnc(C)c3O)CC2)c(=O)n2nc(-c3ccc4nc(N)oc4c3)nc2n1CC(=O)Nc1ccc(C(F)(F)F)cc1Cl endpoint_value=26
smiles_record=CCc1c(N2CCN(C(=O)c3ncnc(C)c3O)CC2)c(=O)n2nc(C3=CCOCC3)nc2n1CC(=O)NC12CC(C3CCC3)(C1)C2 endpoint_value=122
smiles_record=CCc1c(N2CCN(C(=O)c3ccccc3NS(C)(=O)=O)CC2)c(=O)n2nc(N(C)C)nc2n1CC(=O)Nc1ccc(C(F)(F)F)cc1Cl endpoint_value=40.7
smiles_record=CCc1c(N2CCN(C(=O)c3ncnc(C)c3O)CC2)c(=O)n2nc(-c3ccc4c(c3)CCO4)nc2n1CC(=O)Nc1c(Cl)cc(C(F)(F)F)c2scnc12 endpoint_value=38
smiles_record=CCc1c(N2CCN(C(=O)c3nc4c(cc3O)CCOC4)CC2)c(=O)n2nc(-c3ccc4c(c3)COC4(C)C)nc2n1CC(=O)Nc1ccc(C(F)(F)F)cc1Cl endpoint_value=84.8
smiles_record=CCc1c(N2CCN(C(=O)c3ncnc(C)c3O)CC2)c(=O)n2nc(-c3cccc4c3OCO4)nc2n1CC(=O)Nc1ccc(SC(F)(F)F)cc1Cl endpoint_value=103
smiles_record=CCc1c(N2CCN(C(=O)c3ncnc(C)c3O)CC2)c(=O)n2nc(-c3ccc4c(c3)CC(F)(F)C4)nc2n1CC(=O)Nc1ccc(C(F)(F)F)cc1Cl endpoint_value=47
smiles_record=CCc1c(N2CCN(C(=O)c3ncnc(C)c3O)CC2)c(=O)n2nc(-c3ccc4c(c3)CCOC4)nc2n1CC(=O)Nc1ccc(SC(F)(F)F)cc1Cl endpoint_value=35
smiles_record=CCc1c(N2CCN(C(=O)c3ncnc(C)c3O)CC2)c(=O)n2nc(N(C)C)nc2n1CC(=O)Nc1ccc(SC(F)(F)F)cc1Cl endpoint_value=36

----------
# target or test system: Bifunctional 3'-5' exonuclease/ATP-dependent helicase WRN [480-1251] (UniProt Q14191)
# Construct: 480-1251
# protocol notes: Biochemical Activity Assays
pIC50: −log10 of the molar value.
measurement name: pIC50

molecule="CCc1c(N2CCN(C(=O)c3nsc(N4CCN(C)CC4)c3O)CC2)c(=O)n2nc(-c3ccc4c(c3)COC4)nc2n1CC(=O)Nc1ccc(C(F)(F)F)cc1Cl [WO2025049746, Example 443]" endpoint_value=7.19
molecule="CCc1c(N2CCN(C(=O)c3ncnc(C)c3O)CC2)c(=O)n2nc(-c3ccc4c(c3)CCOC4)nc2n1CC(=O)Nc1ccc(C(F)(F)F)c2c1CC2 [WO2025049746, Example 98]" endpoint_value=7.62
molecule="CCc1c(N2CCN(C(=O)c3ncnc(C)c3O)CC2)c(=O)n2nc(-c3cc(C)c4c(c3)COC4(C)C)nc2n1CC(=O)Nc1ccc(C(F)(F)F)cc1Cl [WO2025049746, Example 221]" endpoint_value=7.25
molecule="CCc1c(N2CCN(C(=O)c3ncccc3N=S3(=O)CCC3)CC2)c(=O)n2nc(C3=CCOCC3)nc2n1CC(=O)Nc1ccc(C(F)(F)F)cc1Cl [WO2025049746, Example 37]" endpoint_value=7.25
molecule="CCc1c(N2CCN(C(=O)c3ncnc(C)c3O)CC2)c(=O)n2nc(C3=CCOCC3)nc2n1CC(=O)Nc1ccc(OC(F)(F)Cl)cc1 [WO2025049746, Example 72]" endpoint_value=7.91
molecule="CCc1c(N2CCN(C(=O)c3cccc4c3NS(=O)(=O)C=C4)CC2)c(=O)n2nc(-c3ccc4c(c3)COC4)nc2n1CC(=O)Nc1ccc(C(F)(F)F)cc1Cl [WO2025049746, Example 426]" endpoint_value=7.60
molecule="CCc1c(N2CCN(C(=O)c3ncnc(C)c3O)CC2)c(=O)n2nc(-c3cc4n(n3)CCCC4)nc2n1CC(=O)Nc1ccc(C(F)(F)F)cc1Cl [WO2025049746, Example 184]" endpoint_value=7.24
molecule="Cc1ncnc(C(=O)N2CCN(c3c(OC(F)F)n(CC(=O)Nc4ccc(C(F)(F)F)cc4Cl)c4nc(-c5ccc6c(c5)COC6)nn4c3=O)CC2)c1O [WO2025049746, Example 375]" endpoint_value=5.31
molecule="CCc1c(N2CCN(C(=O)c3ncnc(C)c3O)CC2)c(=O)n2nc(-c3ccc4c(c3)OCC4)nc2n1CC(=O)Nc1c(Cl)cc(C(F)(F)F)c2c1CC2 [WO2025049746, Example 381]" endpoint_value=7.40
molecule="CCc1c(N2CCN(C(=O)c3ncnc(C)c3O)CC2)c(=O)n2nc(-c3ccc4c(c3)CSC4)nc2n1CC(=O)Nc1ccc(C(F)(F)F)cc1Cl [WO2025049746, Example 257]" endpoint_value=7.52
molecule="CCc1c(N2CCN(C(=O)c3ncnc(C)c3O)CC2)c(=O)n2nc(-c3cnc4c(c3)COC4)nc2n1CC(=O)Nc1ccc(C(F)(F)F)cc1Cl [WO2025049746, Example 14]" endpoint_value=7.48
molecule="CCc1c(N2CCN(C(=O)c3ncnc(C)c3O)CC2)c(=O)n2nc(-c3ccc4nccnc4c3)nc2n1CC(=O)Nc1ccc(C(F)(F)F)cc1Cl [WO2025049746, Example 280]" endpoint_value=7.51
molecule="CCc1c(N2CCN(C(=O)c3ncnc(C)c3O)CC2)c(=O)n2nc(C3=CCOCC3)nc2n1CC(=O)NC1CC2(C1)CC(F)(F)C2 [WO2025049746, Example 357]" endpoint_value=5.28
molecule="CCc1c(N2CCN(C(=O)c3ncnc(C)c3O)CC2)c(=O)n2nc(-c3cc4cn(C(F)F)nc4cc3F)nc2n1CC(=O)Nc1ccc(C(F)(F)F)cc1Cl [WO2025049746, Example 291]" endpoint_value=7.51
molecule="CCc1c(N2CCN(C(=O)c3ncnc(C)c3O)CC2)c(=O)n2nc(-c3cccc4c3COCC4)nc2n1CC(=O)Nc1ccc(C(F)(F)F)cc1Cl [WO2025049746, Example 5]" endpoint_value=7.22
